Measured Raw Signal accompanies every entry in the list below.
- Experimental target: Human IP6K1 (Homo sapiens)
- Construct: GST (N, cleaved yes); made in house; host or cells: C43 E. coli, pGEX-6P-2
- Test: IP6K1 high-throughput screen of the Sigma LOPAC (ADP-Glo Max, single point);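 also: final compound concentration 10µM in 5% DMSO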
- Assay type: biochemical
- Protocol conditions: LOPAC single-point screen, ADP-Glo Max raw signal per well
Reply: number alone, nothing else.

See these solved cases before continuing.
COc1cc(OC)c(C=C2C(O)=Nc3ccccc32)c(OC)c1    54461
Cc1cn([C@H]2C=C[C@@H](CO)O2)c(=O)[nH]c1=O [2 ,3 -didehydro-3 -deoxythymidine]    54462

Task item: State its Raw Signal on Human IP6K1 (Homo sapiens): N/C(=N\C(=O)c1nc(Cl)c(N)nc1N)NCc1ccc(Cl)c(Cl)c1
Reply: 56444

Task item: State its Raw Signal on Human IP6K1 (Homo sapiens): O=S(=O)(O)C1CCNCC1
Reply: 54931

Task item: State its Raw Signal on Human IP6K1 (Homo sapiens): O=C(O)c1cc(=O)c2ccccc2[nH]1
Reply: 53243

Task item: State its Raw Signal on Human IP6K1 (Homo sapiens): Cl.O[Si](CCCN1CCCCC1)(c1ccc(F)cc1)C1CCCCC1 (centres unmarked)
Reply: 52920

Task item: State its Raw Signal on Human IP6K1 (Homo sapiens): N[C@@H]1CONC1=O (racemic)
Reply: 55454

Task item: State its Raw Signal on Human IP6K1 (Homo sapiens): Oc1cc(-c2ccccc2)nc2nc(Cl)ccc12
Reply: 57826

----------
- Experimental target: Human IP6K1 (Homo sapiens)
- Construct: GST (N, cleaved yes); made in house; host or cells: C43 E. coli, pGEX-6P-2
- Test: IP6K1 high-throughput screen of the Sigma LOPAC (ADP-Glo Max, single point);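 also: final compound concentration 10µM in 5% DMSO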
- Assay type: biochemical
- Protocol conditions: LOPAC single-point screen, ADP-Glo Max luminescence raw signal per well
Where a name gives a salt, the structure may show the parent alone.
Is Raw Signal at least 50000? Then label 1. If not, label 0.

O=C(O)c1ccccc1Nc1cccc(OCc2ccc3ccccc3n2)c1    label 1
COc1c2c(nc3ccccc13)OC(C(C)(O)CO)C2 (centres unmarked)    label 1
O=C(O)C1=CC(=C(c2ccc(O)c(C(=O)O)c2)c2ccc(O)c(C(=O)O)c2)C=CC1=O    label 0

Task item: Answer whether Raw Signal of CN(C)CCCN1c2ccccc2Sc2ccccc21 [Promazine hydrochloride] is greater than or equal to 50000.
Reply: label 1

Task item: Answer whether Raw Signal of C[C@]12CC[C@@H](O)C[C@@H]1CC[C@@H]1[C@@H]2CC[C@]2(C)[C@@H](O)CC[C@@H]12 is greater than or equal to 50000.
Reply: label 1

Task item: Answer whether Raw Signal of NC1(C(=O)O)CCc2cc(C(=O)O)ccc21 (centres unmarked) is greater than or equal to 50000.
Reply: label 1

----------
- Experimental target: Human IP6K1 (Homo sapiens, UniProt Q92551)
- Construct: GST (N, cleaved yes); made in house; host or cells: C43 E. coli, pGEX-6P-2
- Sequence (Q92551 whole entry): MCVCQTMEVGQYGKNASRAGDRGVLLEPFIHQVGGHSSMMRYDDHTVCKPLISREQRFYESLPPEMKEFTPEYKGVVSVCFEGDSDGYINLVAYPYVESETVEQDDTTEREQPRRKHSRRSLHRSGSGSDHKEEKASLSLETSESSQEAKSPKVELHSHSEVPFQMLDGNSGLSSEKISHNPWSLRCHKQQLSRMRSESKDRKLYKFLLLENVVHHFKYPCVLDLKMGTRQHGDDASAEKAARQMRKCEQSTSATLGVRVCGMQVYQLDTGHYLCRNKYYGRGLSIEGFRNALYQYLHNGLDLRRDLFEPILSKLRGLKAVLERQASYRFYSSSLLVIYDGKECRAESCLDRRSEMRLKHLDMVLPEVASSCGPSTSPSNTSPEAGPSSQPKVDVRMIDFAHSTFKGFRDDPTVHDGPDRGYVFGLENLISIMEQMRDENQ
- Test: IP6K1 high-throughput screen of the Sigma LOPAC (ADP-Glo Max, single point);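 also: final compound concentration 10µM in 5% DMSO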
- Type: biochemical
- Protocol conditions: LOPAC single-point screen; Z-score from raw signal with plate average and StDev
Counter-ions that a name gives are not always drawn.
Outcome measure: Z-score
Reply: number alone, nothing else.

See these solved cases before continuing.
C[C@]12CC[C@@H]3c4ccc(O)cc4CC[C@H]3[C@@H]1CCC2=O [Estrone]    -0.3174
CCN1CCc2nc(N)oc2CC1.Cl.Cl [B-HT 933 dihydrochloride]    -0.2704
OCc1ccc(-c2nn(Cc3ccccc3)c3ccccc23)o1 [YC-1]    -0.1874
Cl.FC(F)(F)c1cc(CO[C@H]2CCCN[C@H]2c2ccccc2)cc(C(F)(F)F)c1 [L-733,060 hydrochloride]    -0.3958
CC[N+](C)(C)Cc1ccccc1Br [Bretylium tosylate]    -0.1747

Task item: Which Z-score is reported for this compound? O=C(O)Cc1ccccc1Nc1c(Cl)cccc1Cl [Diclofenac sodium]
Reply: -0.3845

Task item: Which Z-score is reported for this compound? CC(C(=O)O)c1cccc(C(=O)c2ccccc2)c1 (centres unmarked) [Ketoprofen]
Reply: -0.1664
